Tested on: 233499-124-R-J3-PDC complex spheroid growth
Experiment: Anticancer human tumor 233499-124-R-J3-PDC patient-derived colon adenocarcinoma cell line growth inhibition [AhR]
Conditions: second compound 3.16 µM; first compound 0.3 µM; stronger effect = lower value
endpointName: viability, T/C

molecule: CCN(c1cc(-c2ccc(CN3CCOCC3)cc2)cc(C(=O)NCc2c(C)cc(C)[nH]c2=O)c1C)C1CCOCC1 + CC(CO)NC(=O)c1cc(-c2ccc(Cl)cc2)nn(-c2cnn(C)c2)c1=O
result: 91.9%
//
molecule: CC(C)CC(NC(=O)C(Cc1ccccc1)NC(=O)c1cnccn1)B(O)O (stereo unspecified) + Cc1ccccc1N=Nc1ccc(NC(=O)c2ccnn2C)c(C)c1
result: 0.14%
//
molecule: CCc1c2c(nc3ccc(O)cc13)-c1cc3c(c(=O)n1C2)COC(=O)[C@]3(O)CC + Cc1cncc(-c2nc(NCCc3c[nH]c4ccccc34)c3ncn(C(C)C)c3n2)c1
result: 65.3%
//
molecule: CCN(c1cc(-c2ccc(CN3CCOCC3)cc2)cc(C(=O)NCc2c(C)cc(C)[nH]c2=O)c1C)C1CCOCC1 + Cc1ccccc1N=Nc1ccc(NC(=O)c2ccnn2C)c(C)c1
result: 91.7%
//
molecule: Nc1ncn(C2CC(O)C(CO)S2)c(=O)n1 (stereo unspecified) + Cc1cncc(-c2nc(NCCc3c[nH]c4ccccc34)c3ncn(C(C)C)c3n2)c1
result: 99.4%
//
molecule: O=C(C=Cn1cnc(-c2cc(C(F)(F)F)cc(C(F)(F)F)c2)n1)NNc1cnccn1 + Cc1cncc(-c2nc(NCCc3c[nH]c4ccccc34)c3ncn(C(C)C)c3n2)c1
result: 87%
//
molecule: CC(C)CC(NC(=O)C(Cc1ccccc1)NC(=O)c1cnccn1)B(O)O (stereo unspecified) + Cc1cncc(-c2nc(NCCc3c[nH]c4ccccc34)c3ncn(C(C)C)c3n2)c1
result: 0.9%
//
molecule: Nc1ncn(C2CC(O)C(CO)S2)c(=O)n1 (stereo unspecified) + CC(CO)NC(=O)c1cc(-c2ccc(Cl)cc2)nn(-c2cnn(C)c2)c1=O
result: 90.5%
//
molecule: O=C(C=Cn1cnc(-c2cc(C(F)(F)F)cc(C(F)(F)F)c2)n1)NNc1cnccn1 + Cc1ccccc1N=Nc1ccc(NC(=O)c2ccnn2C)c(C)c1
result: 86.8%
//
molecule: Nc1ncn(C2CC(O)C(CO)S2)c(=O)n1 (stereo unspecified) + Cc1ccccc1N=Nc1ccc(NC(=O)c2ccnn2C)c(C)c1
result: 107%
//
molecule: O=C(C=Cn1cnc(-c2cc(C(F)(F)F)cc(C(F)(F)F)c2)n1)NNc1cnccn1 + CC(CO)NC(=O)c1cc(-c2ccc(Cl)cc2)nn(-c2cnn(C)c2)c1=O
result: 99%

* * *

Tested on: 233499-124-R-J3-PDC complex spheroid growth
Assay: Anticancer human tumor 233499-124-R-J3-PDC cell line growth inhibition [AhR];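 note: spheroids exposed to agents for seven days before reading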
Conditions: second compound 3.16 µM; first compound 0.1 µM; stronger effect = lower value
Source text: Multicellular complex tumor spheroid response to aryl hydrocarbon receptor antagonists in combination with a variety of drugs and investigational agents in selected tumor cell lines […] Compounds. […] If the clinical Cmax for an agent had not been determined, the highest concentration tested was 10 microM (Table 1). […]
Parameter viability, T/C: see the listing below.
endpointName: viability, T/C (%)

compound: CC[C@@]1(O)C(=O)OCc2c1cc1n(c2=O)Cc2cc3c(CN(C)C)c(O)ccc3nc2-1 + CC(CO)NC(=O)c1cc(-c2ccc(Cl)cc2)nn(-c2cnn(C)c2)c1=O
subjectOfTest: 233499-124-R-J3-PDC complex spheroid growth
scaleUnit: %
quantitativeReadout: 75
--
compound: Nc1ccn(C2OC(CO)C(O)C2(F)F)c(=O)n1 (stereo not drawn) + CC(CO)NC(=O)c1cc(-c2ccc(Cl)cc2)nn(-c2cnn(C)c2)c1=O
subjectOfTest: 233499-124-R-J3-PDC complex spheroid growth
scaleUnit: %
quantitativeReadout: 69.7
--
compound: NS(=O)(=O)OCC1CC(n2ccc3c(NC4CCc5ccccc54)ncnc32)CC1O (stereo not drawn) + Cc1cncc(-c2nc(NCCc3c[nH]c4ccccc34)c3ncn(C(C)C)c3n2)c1
subjectOfTest: 233499-124-R-J3-PDC complex spheroid growth
scaleUnit: %
quantitativeReadout: 74.9
--
compound: Cn1ncnc1C1c2n[nH]c(=O)c3cc(F)cc(c23)NC1c1ccc(F)cc1 (stereo not drawn) + Cc1ccccc1N=Nc1ccc(NC(=O)c2ccnn2C)c(C)c1
subjectOfTest: 233499-124-R-J3-PDC complex spheroid growth
scaleUnit: %
quantitativeReadout: 99.2
--
compound: O=C(c1cc(Cc2n[nH]c(=O)c3ccccc23)ccc1F)N1CCN(C(=O)C2CC2)CC1 + CC(CO)NC(=O)c1cc(-c2ccc(Cl)cc2)nn(-c2cnn(C)c2)c1=O
subjectOfTest: 233499-124-R-J3-PDC complex spheroid growth
scaleUnit: %
quantitativeReadout: 84
--
compound: Nc1ncn(C2CC(O)C(CO)O2)c(=O)n1 (stereo not drawn) + Cc1ccccc1N=Nc1ccc(NC(=O)c2ccnn2C)c(C)c1
subjectOfTest: 233499-124-R-J3-PDC complex spheroid growth
scaleUnit: %
quantitativeReadout: 92.5
--
compound: COc1ccc([C@@H](O)c2cc(-c3ncnc4cc(N5CCOCC5)ccc34)c(F)cc2Cl)nn1 + Cc1cncc(-c2nc(NCCc3c[nH]c4ccccc34)c3ncn(C(C)C)c3n2)c1
subjectOfTest: 233499-124-R-J3-PDC complex spheroid growth
scaleUnit: %
quantitativeReadout: 72.7
--
compound: CC1COCCN1c1cc(C2(S(C)(=N)=O)CC2)nc(-c2ccnc3[nH]ccc23)n1 (stereo not drawn) + Cc1ccccc1N=Nc1ccc(NC(=O)c2ccnn2C)c(C)c1
subjectOfTest: 233499-124-R-J3-PDC complex spheroid growth
scaleUnit: %
quantitativeReadout: 110
--
compound: CC[C@@]1(O)C(=O)OCc2c1cc1n(c2=O)Cc2cc3c(CN(C)C)c(O)ccc3nc2-1 + Cc1cncc(-c2nc(NCCc3c[nH]c4ccccc34)c3ncn(C(C)C)c3n2)c1
subjectOfTest: 233499-124-R-J3-PDC complex spheroid growth
scaleUnit: %
quantitativeReadout: 63.2
--
compound: Nc1ccccc1NC(=O)c1ccc(CNC(=O)OCc2cccnc2)cc1 + Cc1cncc(-c2nc(NCCc3c[nH]c4ccccc34)c3ncn(C(C)C)c3n2)c1
subjectOfTest: 233499-124-R-J3-PDC complex spheroid growth
scaleUnit: %
quantitativeReadout: 77.7
--
compound: COc1cc(C2c3cc4c(cc3C(OC3OC5COC(C)OC5C(O)C3O)C3COC(=O)C23)OCO4)cc(OC)c1O (stereo not drawn) + CC(CO)NC(=O)c1cc(-c2ccc(Cl)cc2)nn(-c2cnn(C)c2)c1=O
subjectOfTest: 233499-124-R-J3-PDC complex spheroid growth
scaleUnit: %
quantitativeReadout: 95.5
--
compound: NS(=O)(=O)OCC1CC(n2ccc3c(NC4CCc5ccccc54)ncnc32)CC1O (stereo not drawn) + CC(CO)NC(=O)c1cc(-c2ccc(Cl)cc2)nn(-c2cnn(C)c2)c1=O
subjectOfTest: 233499-124-R-J3-PDC complex spheroid growth
scaleUnit: %
quantitativeReadout: 85.1
--
compound: Nc1ncn(C2CC(O)C(CO)O2)c(=O)n1 (stereo not drawn) + Cc1cncc(-c2nc(NCCc3c[nH]c4ccccc34)c3ncn(C(C)C)c3n2)c1
subjectOfTest: 233499-124-R-J3-PDC complex spheroid growth
scaleUnit: %
quantitativeReadout: 81
--
compound: NS(=O)(=O)OCC1CC(n2ccc3c(NC4CCc5ccccc54)ncnc32)CC1O (stereo not drawn) + Cc1ccccc1N=Nc1ccc(NC(=O)c2ccnn2C)c(C)c1
subjectOfTest: 233499-124-R-J3-PDC complex spheroid growth
scaleUnit: %
quantitativeReadout: 97.5
--
compound: CC[C@@]1(O)C(=O)OCc2c1cc1n(c2=O)Cc2cc3c(CN(C)C)c(O)ccc3nc2-1 + Cc1ccccc1N=Nc1ccc(NC(=O)c2ccnn2C)c(C)c1
subjectOfTest: 233499-124-R-J3-PDC complex spheroid growth
scaleUnit: %
quantitativeReadout: 87.9
--
compound: COc1cccc2c1C(=O)c1c(O)c3c(c(O)c1C2=O)CC(O)(C(=O)CO)CC3OC1CC(N)C(O)C(C)O1 (stereo not drawn) + Cc1cncc(-c2nc(NCCc3c[nH]c4ccccc34)c3ncn(C(C)C)c3n2)c1
subjectOfTest: 233499-124-R-J3-PDC complex spheroid growth
scaleUnit: %
quantitativeReadout: 87.1
--
compound: CC1(C)CCC(CN2CCN(c3ccc(C(=O)NS(=O)(=O)c4ccc(NCC5CCOCC5)c([N+](=O)[O-])c4)c(Oc4cnc5[nH]ccc5c4)c3)CC2)=C(c2ccc(Cl)cc2)C1 + CC(CO)NC(=O)c1cc(-c2ccc(Cl)cc2)nn(-c2cnn(C)c2)c1=O
subjectOfTest: 233499-124-R-J3-PDC complex spheroid growth
scaleUnit: %
quantitativeReadout: 92.1
--
compound: Cn1ncnc1C1c2n[nH]c(=O)c3cc(F)cc(c23)NC1c1ccc(F)cc1 (stereo not drawn) + CC(CO)NC(=O)c1cc(-c2ccc(Cl)cc2)nn(-c2cnn(C)c2)c1=O
subjectOfTest: 233499-124-R-J3-PDC complex spheroid growth
scaleUnit: %
quantitativeReadout: 87.6
